Cited source: PubChem BioAssay AID1825

# procedure-details: IEC-6 cell viability reduction – luminescence, cytotoxicity control for KLF5 inhibitor project, primary screen (AID 1825);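 note: 0% = plate median of test compound wells and 100% = cytotoxic reference compound wells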
# test-conditions: IEC-6 cytotoxicity, at 5 µM
The whole screen tested about 290,000 compounds, of which about 2,300 (0.79%) were called active. Cut-off read from the data, not from the text of the source: active = inhibition above about 22%; inactive = the rest. Shown is part of a subset that was picked to be rich in actives.
Permitted responses: active, inactive

molecule | label-value
CCCCN(CCCC)CCCNC(=O)CN1C(=O)COc2ccc(S(=O)(=O)N3CCC(C)CC3)cc21 | inactive
CCCOC(=O)c1[nH]c2c(c1C)C(=O)CC(c1cccs1)C2 (stereo unspecified) | active
COC(=O)C(C)Sc1nc2c(c(=O)n(C)c(=O)n2C)n1Cc1cccc(C)c1 (stereo unspecified) | inactive
CCc1ccc2[nH]c(=O)c(Cc3ccccc3)c(O)c2c1 | inactive
Cn1cccc1/C=N/NC(=O)c1ccc(OC(F)(F)C(F)F)cc1 | inactive
CN(C)CCCNC(=O)c1cc(C(=O)Cc2ccc(Cl)cc2)c[nH]1 | inactive
CCOC(=O)C(C(=O)OCC)C(C#N)c1ccccc1 (stereo unspecified) | inactive
O=C(Cc1ccc(-c2ccccc2)cc1)NC(c1ccccc1)c1ccccc1 | inactive
Cc1ccc(-c2csc(NC3OC(=O)c4ccccc43)n2)cc1 (stereo unspecified) | active
NS(=O)(=O)c1ccccc1NC(=O)c1c(O)c2ccccc2[nH]c1=O | inactive

Moving on to another molecule below.
I'd appreciate the recorded outcome for Cn1c(=O)oc2cc(S(=O)(=O)NCCC(=O)NCc3ccccc3Cl)ccc21 from this test.
inactive

---

# reported inhibition; entries follow
# procedure-details: IEC-6 cell viability reduction – luminescence, cytotoxicity control for KLF5 inhibitor project, primary screen (AID 1825);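 note: 0% = plate median of test compound wells and 100% = cytotoxic reference compound wells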
# test-conditions: IEC-6 cytotoxicity, at 5 µM, active compounds read high
Screen size: about 290,000 compounds; about 2,300 (0.79%) were called active. Shown is part of a subset that was picked to be rich in actives.
Numbers only here, please. The scale is %.

Record request: inhibition value, item Oc1cccc(/C=N/Nc2ccc(Cl)nn2)c1O
99.5

Again, but for CCc1ccccc1NC(=S)Nc1cc(OC)c(NC(=O)C(C)C)cc1OC
-1.1

---

# procedure-details: IEC-6 cell viability reduction – luminescence, cytotoxicity control for KLF5 inhibitor project, primary screen (AID 1825);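 note: 0% = plate median of test compound wells and 100% = cytotoxic reference compound wells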
# test-conditions: IEC-6 cytotoxicity, at 5 µM
In all, about 290,000 compounds went through this assay and about 2,300 (0.79%) were called active. No stated cut-off is given here; in the data, active means inhibition above about 22%; inactive means the rest. Many of the other results were omitted from the sample, so actives are more common in it than they were.
API: response.call in yes (1) for active, no (0) for inactive

compound | label-value
COc1ccc(Nc2oc(-c3ccccc3Cl)nc2C#N)cc1 | yes (1)
O=[N+]([O-])c1cccc(Nc2c3ccccc3nc3ccccc23)c1 | no (0)
O=C(CN1CCCCCC1)Nc1ccc(Cl)cc1F | no (0)

Can you look up the reported call for CC(=O)Nc1ccc(Nc2c3ccccc3nc3ccccc23)cc1 for me?
yes (1)

Follow-up item: Cc1cc(C(=O)NC2CCCc3c2cnn3-c2cccc(C)c2C)c(C)o1 (stereo unspecified)
no (0)

# iterate: Cc1ccc(Nc2c3c(nc4ccccc24)CCC3)cc1
no (0)

---

# procedure-details: IEC-6 cell viability reduction – luminescence, cytotoxicity control for KLF5 inhibitor project, primary screen (AID 1825);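 note: 0% = plate median of test compound wells and 100% = cytotoxic reference compound wells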
# test-conditions: IEC-6 cytotoxicity, at 5 µM
Out of some 290,000 compounds screened, about 2,300 (0.79%) were called active. No stated cut-off is given here; in the data, active means inhibition above about 22%; inactive means the rest. Only a selection was taken, and actives are over-represented in it overall.
Could you please pick one outcome from this set? YES for active, NO for inactive

Some solved entries appear below for comparison.
smiles-str | label-value
CC(C)c1cc(C(=O)N/N=C/C(Br)=C/c2ccccc2)n[nH]1 | YES
COC(=O)c1ccc(NC(=O)CSc2nncn2-c2cccnc2)cc1 | NO

Hi team, can someone confirm the assay call for COc1cc(Br)c(-c2sc(Nc3ccccc3)n[n+]2-c2ccccc2)cc1OC ?
NO

Now give it for O=C(c1cc2sccc2n1Cc1ccc(F)cc1)N1CCc2ccccc21 too.
NO

What do we get for COc1ccc(CNS(=O)(=O)c2ccc(-c3cnc(C4CC4)o3)cc2)cc1 ?
NO

CC(C)c1cc(C(=O)O)n[nH]1 ?
NO
